Quick reference for pEC50 among some compounds
# tested on: Muscarinic acetylcholine receptor M4 (Homo sapiens, UniProt P08173)
# Sequence (P08173 whole entry): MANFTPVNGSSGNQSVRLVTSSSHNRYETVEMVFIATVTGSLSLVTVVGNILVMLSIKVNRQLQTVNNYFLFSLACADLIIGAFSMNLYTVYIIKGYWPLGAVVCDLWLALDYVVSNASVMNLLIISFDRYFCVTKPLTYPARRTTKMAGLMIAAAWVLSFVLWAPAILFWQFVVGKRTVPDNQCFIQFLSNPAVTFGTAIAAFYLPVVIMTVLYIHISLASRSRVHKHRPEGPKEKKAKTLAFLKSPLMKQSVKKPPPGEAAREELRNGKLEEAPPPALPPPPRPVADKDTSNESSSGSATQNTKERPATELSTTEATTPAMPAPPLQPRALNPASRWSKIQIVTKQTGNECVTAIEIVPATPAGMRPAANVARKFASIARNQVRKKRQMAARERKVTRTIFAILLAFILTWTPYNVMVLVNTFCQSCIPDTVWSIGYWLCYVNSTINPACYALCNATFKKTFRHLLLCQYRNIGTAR
# assay protocol: Positive allosteric modulation of human muscarinic M4 receptor expressed in CHO cells co-expressing Gqi5 assessed as increase in acetylcholine-induced calcium mobilization
# Assay type: functional, cell-based
# condition parameters: read-out: EC50
pEC50: −log10 of the molar value.

[[record]]
cpd_smiles = "COc1cc(N2CC(NC(=O)c3ccc4nnc(C)n4c3)C2)c(Cl)cn1"
result = "< 5.00"


--- query ---
Give the reported pEC50 for "Cc1nnc2ccc(C(=O)NC3CN(c4cc(Cl)ncc4Cl)C3)cn12" (system: Muscarinic acetylcholine receptor M4 (Homo sapiens, UniProt P08173)). < 5.00
